Values compiled from the supplement of paper PMC11061612.

The reader will find reported combination Emax values listed item by item below.
test system: HO-1-N-1 (Oral Cavity Carcinoma); assay: combination Emax (second highest fraction inhibited in the dose matrix, 72 h); higher = more inhibition; extreme values may be limits of the assay
Please give the numeric answer without any surrounding text.

{"molecule": "CCc1c2c(nc3ccc(O)cc13)-c1cc3c(c(=O)n1C2)COC(=O)[C@]3(O)CC [SN-38] + O=C(c1cc(Cc2n[nH]c(=O)c3ccccc23)ccc1F)N1CCN(C(=O)C2CC2)CC1 [Olaparib] (first compound max 0.3 µM, 7x7, partner max 10 µM)", "combination Emax": 1}

# input Bench note: what combination Emax did C=CCn1c(=O)c2cnc(Nc3ccc(N4CCN(C)CC4)cc3)nc2n1-c1cccc(C(C)(C)O)n1 [AZD1775] + CCc1c2c(nc3ccc(O)cc13)-c1cc3c(c(=O)n1C2)COC(=O)[C@]3(O)CC [SN-38] (first compound max 1 µM, partner max 0.3 µM) show?
# output 0.978

# input Bench note: what combination Emax did CC1(C)CCC(CN2CCN(c3ccc(C(=O)NS(=O)(=O)c4ccc(NCC5CCOCC5)c([N+](=O)[O-])c4)c(Oc4cnc5[nH]ccc5c4)c3)CC2)=C(c2ccc(Cl)cc2)C1 [Venetoclax] + C[C@@H]1COCCN1C2=NC(=NC(=C2)C3(CC3)[S@](=N)(=O)C)C4=C5C=CNC5=NC=C4 [AZD6738] (first compound max 1 µM, 7x7, partner max 10 µM) show?
# output 0.871
